Target: T1, human CD19 on CHO-K1-human CD19 cells (human, UniProt P15391 20-556)
T1 construct: whole, on cells; also called CHO-K1-human CD19-2C8
T1 sequence (looked up): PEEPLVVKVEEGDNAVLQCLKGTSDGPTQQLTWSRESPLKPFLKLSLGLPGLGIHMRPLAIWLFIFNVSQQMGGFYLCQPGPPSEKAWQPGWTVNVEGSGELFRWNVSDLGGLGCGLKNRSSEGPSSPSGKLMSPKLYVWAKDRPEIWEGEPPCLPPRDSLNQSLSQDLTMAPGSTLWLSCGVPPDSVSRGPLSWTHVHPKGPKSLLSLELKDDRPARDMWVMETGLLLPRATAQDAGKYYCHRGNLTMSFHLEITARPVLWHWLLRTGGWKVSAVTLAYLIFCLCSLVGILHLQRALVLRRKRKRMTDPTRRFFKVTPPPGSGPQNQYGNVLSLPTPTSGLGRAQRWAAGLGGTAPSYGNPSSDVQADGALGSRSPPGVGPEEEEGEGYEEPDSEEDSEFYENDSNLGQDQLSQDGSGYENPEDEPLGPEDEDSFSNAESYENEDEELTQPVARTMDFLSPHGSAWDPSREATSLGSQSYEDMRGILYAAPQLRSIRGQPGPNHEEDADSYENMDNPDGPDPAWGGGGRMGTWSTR
Test: FACS on CHO-K1-human CD19 cells
MEASURE: Maximum mean fluorescence intensity

- F3.121.4-L1H2 (antibody, mouse IgG1, kappa, V domains shown, humanized antibody of F3.121.4, VL1+VH2, murine IgG1 constant regions) VH: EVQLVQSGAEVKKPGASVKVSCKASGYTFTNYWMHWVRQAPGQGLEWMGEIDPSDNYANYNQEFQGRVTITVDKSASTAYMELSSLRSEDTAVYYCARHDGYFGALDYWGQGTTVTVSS VL: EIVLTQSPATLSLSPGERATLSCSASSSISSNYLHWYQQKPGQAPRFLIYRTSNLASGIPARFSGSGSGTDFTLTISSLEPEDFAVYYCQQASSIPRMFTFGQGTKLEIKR: 54200 MFI
- F3.121.4 (antibody, human IgG1, V domains shown, human-murine chimeric antibody, human IgG1 constant; also called chimeric antibody F3.121.4) VH: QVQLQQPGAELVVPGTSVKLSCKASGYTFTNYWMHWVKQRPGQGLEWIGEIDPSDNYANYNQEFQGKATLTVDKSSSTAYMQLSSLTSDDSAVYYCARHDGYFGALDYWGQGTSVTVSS VL: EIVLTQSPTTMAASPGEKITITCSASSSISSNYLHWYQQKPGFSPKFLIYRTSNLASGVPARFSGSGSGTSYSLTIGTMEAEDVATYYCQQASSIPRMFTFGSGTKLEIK: 53700 MFI
- F3.121.4-L2H1 (antibody, mouse IgG1, kappa, V domains shown, humanized antibody of F3.121.4, VL2+VH1, murine IgG1 constant regions) VH: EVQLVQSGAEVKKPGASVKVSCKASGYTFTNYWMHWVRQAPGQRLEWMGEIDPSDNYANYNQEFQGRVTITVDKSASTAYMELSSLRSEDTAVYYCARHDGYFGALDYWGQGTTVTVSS VL: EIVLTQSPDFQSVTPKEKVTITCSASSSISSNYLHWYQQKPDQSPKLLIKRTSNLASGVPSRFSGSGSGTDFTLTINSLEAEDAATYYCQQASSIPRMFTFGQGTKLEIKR: 53200 MFI
